Test: Pharmacokinetics of BEZ235 in plasma, phase Ib combination with everolimus
Assay type: in vivo, human (patients with advanced solid tumors)
Conditions: human, plasma, po, Tmax, BEZ235 800 mg/d + everolimus 2.5 mg/d oral; day 1; plasma; mean ± SE
ENDPOINT_NAME: Tmax (h)

- Cn1c(=O)n(-c2ccc(C(C)(C)C#N)cc2)c2c3cc(-c4cnc5ccccc5c4)ccc3ncc21: 2.6

---

Assay: Pharmacokinetics of BEZ235 in plasma, phase Ib combination with everolimus
Type: in vivo, human (patients with advanced solid tumors)
Conditions: human, plasma, po, Cmax, BEZ235 800 mg/d + everolimus 2.5 mg/d oral; day 28; plasma; mean ± SE
ENDPOINT_NAME: Cmax (ng/mL)

• Cn1c(=O)n(-c2ccc(C(C)(C)C#N)cc2)c2c3cc(-c4cnc5ccccc5c4)ccc3ncc21 = 880

---

Assay: Pharmacokinetics of BEZ235 in plasma, phase Ib combination with everolimus
Assay type: in vivo, human (patients with advanced solid tumors)
Conditions: human, plasma, po, AUC 0-24, BEZ235 400 mg/d + everolimus 2.5 mg/d oral; day 1; plasma; mean ± SE
ENDPOINT_NAME: AUC(0-t) (ng·h/mL)

• Cn1c(=O)n(-c2ccc(C(C)(C)C#N)cc2)c2c3cc(-c4cnc5ccccc5c4)ccc3ncc21 = 741
